Readings of solubility kinetic for the listed compounds
# experimentSummary: Kinetic aqueous solubility of the compound
# Format: physicochemical
# testContext: buffer; read-out: Kinetic_solubility

{"columns": ["compound", "solubility kinetic"],
 "data": [
  ["CC1=C(C(=O)NCCN(C)C)C(c2ccccc2Cl)N=C(Nc2nc3ccccc3o2)N1 (stereo not drawn)", "> 67 µg/mL"],
  ["COC(=O)Cc1ccc(NC(=O)C2=C(C)NC(Nc3nc4ccccc4o3)=NC2c2ccccc2Cl)cc1 (stereo not drawn)", "< 1 µg/mL"],
  ["CC1=C(C(=O)Nc2cc(C(=O)O)ccn2)C(c2ccc(C)cc2Cl)N=C(Nc2nc3cccnc3o2)N1 (stereo not drawn)", "> 51 µg/mL"]
]}

For CC1=C(C(=O)Nc2nncs2)C(c2ccccc2C(F)(F)F)N=C(Nc2nc3ccccc3o2)N1 (stereo not drawn) , what is its reported solubility kinetic?
< 1 µg/mL

Then what about the compound CC1=C(C(=O)Nc2nncs2)C(c2n[nH]cc2Cl)N=C(Nc2nc3ccccc3o2)N1 (stereo not drawn) ?
34.6 µg/mL

Then what about the compound CC1=C(C(=O)Nc2nnc(C(F)(F)F)s2)C(c2ccccc2Cl)N=C(Nc2nc3ccccc3o2)N1 (stereo not drawn) ?
< 1 µg/mL

Then what about the compound CC1=C(C(=O)Nc2cc(C(=O)O)ccn2)C(c2ccc(C)cc2Cl)N=C(Nc2nc3cnccc3o2)N1 (stereo not drawn) ?
> 51 µg/mL

Then what about the compound CCn1cc(CNC(=O)C2=C(C)NC(Nc3nc4ccc(F)c(N)c4o3)=NC2c2ccc(Cl)cc2Cl)cn1 (stereo not drawn) ?
< 1 µg/mL
